The values you see were collected from patent US8859572B2.

- Target or system: PI3Kβ (recombinant truncated form (ΔN1-108) of the human p110β subunit of PI3K) (Homo sapiens, UniProt P42338)
- Construct: His6 (N)
- Sequence (P42338 109-1070): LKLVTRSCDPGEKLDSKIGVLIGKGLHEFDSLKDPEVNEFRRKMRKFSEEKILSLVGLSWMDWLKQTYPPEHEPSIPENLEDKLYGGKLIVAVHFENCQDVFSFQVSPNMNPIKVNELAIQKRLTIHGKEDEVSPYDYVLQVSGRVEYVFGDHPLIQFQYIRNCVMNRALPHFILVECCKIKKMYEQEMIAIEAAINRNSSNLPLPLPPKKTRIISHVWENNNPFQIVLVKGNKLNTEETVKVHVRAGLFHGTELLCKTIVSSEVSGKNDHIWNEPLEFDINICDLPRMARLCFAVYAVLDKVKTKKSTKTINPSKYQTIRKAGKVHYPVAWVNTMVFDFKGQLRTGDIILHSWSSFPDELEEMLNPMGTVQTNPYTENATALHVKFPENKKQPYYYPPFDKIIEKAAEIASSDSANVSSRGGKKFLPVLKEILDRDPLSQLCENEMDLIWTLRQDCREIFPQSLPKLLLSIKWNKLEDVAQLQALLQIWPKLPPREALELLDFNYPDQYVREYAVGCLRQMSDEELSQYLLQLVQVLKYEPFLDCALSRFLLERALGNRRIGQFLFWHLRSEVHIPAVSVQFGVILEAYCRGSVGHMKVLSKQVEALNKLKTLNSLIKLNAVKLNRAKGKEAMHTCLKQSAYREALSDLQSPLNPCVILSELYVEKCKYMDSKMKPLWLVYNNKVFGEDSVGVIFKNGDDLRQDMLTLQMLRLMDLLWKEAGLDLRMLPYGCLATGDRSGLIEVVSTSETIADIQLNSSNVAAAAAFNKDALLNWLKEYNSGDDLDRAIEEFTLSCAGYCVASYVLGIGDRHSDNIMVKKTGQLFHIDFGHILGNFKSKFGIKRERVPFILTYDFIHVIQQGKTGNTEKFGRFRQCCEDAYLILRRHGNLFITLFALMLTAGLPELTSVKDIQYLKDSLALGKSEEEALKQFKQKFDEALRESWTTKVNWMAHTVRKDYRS
- Assay text: Solid-phase lipid kinase assay of PI3Kβ
- Assay setup: 7.5 ng protein/well, final 10 μM ATP, 2 h at rt
IC50 listing for selected compounds.
Reported property: IC50

# Mol smiles, Reported measurement
data = [
    ("O=C(NC1=Nc2cc(OCCCS(=O)(=O)N3CCOCC3)ccc2C2=NCCN12)c1cncnc1", "0.1 to 3 µM"),
    ("COc1c(OCCOCCNS(=O)(=O)c2ccccc2)ccc2c1N=C(NC(=O)c1cccnc1)N1CCN=C21", "< 0.1 µM"),
    ("CS(=O)(=O)c1ccc(COc2cccc3c2N=C(NC(=O)c2cccnc2)N2CCN=C32)cc1", "< 0.1 µM"),
    ("COc1c(OCCCS(=O)(=O)N(C)C)ccc2c1N=C(NC(=O)c1cnc(N)nc1)N1CCN=C21", "< 0.1 µM"),
    ("COc1c(OCCOCCNS(C)(=O)=O)ccc2c1N=C(NC(=O)c1cccnc1)N1CCN=C21", "< 0.1 µM"),
    ("COc1c(OCCCN2CCS(=O)(=O)CC2)ccc2c1N=C(NC(=O)c1cccnc1)N1CCN=C21", "< 0.1 µM"),
    ("COc1c(OCCOCCNS(=O)(=O)c2ccc(C)cc2)ccc2c1N=C(NC(=O)c1cccnc1)N1CCN=C21", "< 0.1 µM"),
    ("O=C(NC1=Nc2c(OCCCS(=O)(=O)N3CCOCC3)cccc2C2=NCCN12)c1cccnc1", "0.1 to 3 µM"),
    ("COc1c(OCCCN2CCS(=O)(=O)CC2)ccc2c1N=C(NC(=O)c1cnc(N)nc1)N1CCN=C21", "< 0.1 µM"),
    ("COc1c(OCc2ccc(S(C)(=O)=O)cc2)ccc2c1N=C(NC(=O)c1cccnc1)N1CCN=C21", "0.1 to 3 µM"),
    ("CN1CCN(S(=O)(=O)CCCOc2cccc3c2N=C(NC(=O)c2cccnc2)N2CCN=C32)CC1", "0.1 to 3 µM"),
    ("CN1CCN(S(=O)(=O)CCCOc2c(OCCCN3CCOCC3)ccc3c2N=C(NC(=O)c2cccnc2)N2CCN=C32)CC1", "< 0.1 µM"),
    ("CCS(=O)(=O)NCCCOc1ccc2c(c1OC)N=C(NC(=O)c1cccnc1)N1CCN=C21", "< 0.1 µM"),
    ("COc1c(OCCCN2CCS(=O)(=O)CC2)ccc2c1N=C(NC(=O)c1ccc(N)nc1)N1CCN=C21", "< 0.1 µM"),
    ("COc1c(OCc2ccc(S(C)(=O)=O)cc2)ccc2c1N=C(NC(=O)c1ccc(N)nc1)N1CCN=C21", "< 0.1 µM"),
    ("O=C(NC1=Nc2c(OCCCN3CCS(=O)(=O)CC3)cccc2C2=NCCN12)c1cccnc1", "0.1 to 3 µM"),
    ("COc1c(OCCCS(=O)(=O)N(C)C)ccc2c1N=C(NC(=O)c1cccnc1)N1CCN=C21", "< 0.1 µM"),
    ("CN(C)S(=O)(=O)CCCOc1cccc2c1N=C(NC(=O)c1cccnc1)N1CCN=C21", "< 0.1 µM"),
    ("CCCS(=O)(=O)NCCOCCOc1ccc2c(c1OC)N=C(NC(=O)c1cccnc1)N1CCN=C21", "< 0.1 µM"),
    ("CN1CCN(S(=O)(=O)CCCOc2ccc3c(c2)N=C(NC(=O)c2cccnc2)N2CCN=C32)CC1", "0.1 to 3 µM"),
    ("CS(=O)(=O)c1ccc(COc2c(OCCCN3CCOCC3)ccc3c2N=C(NC(=O)c2cccnc2)N2CCN=C32)cc1", "< 0.1 µM"),
    ("COc1c(OCc2ccc(S(C)(=O)=O)cc2)ccc2c1N=C(NC(=O)c1cnc(N)nc1)N1CCN=C21", "< 0.1 µM"),
    ("CCN(CC)S(=O)(=O)CCCOc1c(OCCCN2CCOCC2)ccc2c1N=C(NC(=O)c1cccnc1)N1CCN=C21", "< 0.1 µM"),
    ("COc1c(OCCCS(=O)(=O)N2CCN(C)CC2)ccc2c1N=C(NC(=O)c1cccnc1)N1CCN=C21", "< 0.1 µM"),
    ("Cc1nc(C)c(C(=O)NC2=Nc3cc(OCc4ccc(S(C)(=O)=O)cc4)ccc3C3=NCCN23)s1", "0.1 to 3 µM"),
    ("COc1c(OCCCS(=O)(=O)N2CCOCC2)ccc2c1N=C(NC(=O)c1ccc(N)nc1)N1CCN=C21", "< 0.1 µM"),
    ("COc1c(OCCCS(=O)(=O)N(C)C)ccc2c1N=C(NC(=O)c1ccc(N)nc1)N1CCN=C21", "< 0.1 µM"),
    ("CS(=O)(=O)Oc1c(OCCCN2CCOCC2)ccc2c1N=C(NC(=O)c1cccnc1)N1CCN=C21", "< 0.1 µM"),
    ("CS(=O)(=O)c1ccc(COc2ccc3c(c2)N=C(NC(=O)c2cccnc2)N2CCN=C32)cc1", "0.1 to 3 µM"),
    ("O=C(NC1=Nc2cc(OCCCS(=O)(=O)N3CCOCC3)ccc2C2=NCCN12)c1cccnc1", "0.1 to 3 µM"),
]
